molecules and their reported melting point

Field: example entries. Status: answers known.
CC(C)(C)OC(=O)N1CC(CCl)c2c1cc(O)c1ncccc21 (stereo not drawn)    148 to 149 °C
Brc1nc2ncnc(NCc3ccccc3)c2[nH]1    233 to 235 °C

// next entry
Answer with the recorded melting point for the molecule listed here: `CCSC(=O)OCOC(=O)c1ccco1`
37.2 to 38.4 °C

----------
Readout type: melting point

Field: example entries. Status: answers known.
C[C@H](O)CCC[C@H](O)CCCCCc1cc(O)cc(O)c1C(=O)O    116 to 118 °C
COc1cn([C@H](C)c2cccc3ccccc23)c(=O)o1    89 to 91 °C
N#CCCN(CCC#N)CCC#N    59 to 61 °C

Answer with the recorded melting point for the compound listed here: `CCN(CC)CCNC(=O)c1c2cc(I)ccc2nc2ccc(I)cc12`
209 to 211 °C

Answer with the recorded melting point for the compound listed here: `Nc1ccc(C#Cc2c(F)c(F)nc(F)c2F)cc1`
164 to 165 °C

Answer with the recorded melting point for the compound listed here: `O=C(NCCN1CCOCC1)c1ccc(Cl)cc1`
120 to 121 °C

Answer with the recorded melting point for the compound listed here: `C=Cc1cc(Cl)c(N)c(Cl)c1`
63 °C

Answer with the recorded melting point for the compound listed here: `O=C(O)CCCCCCCNS(=O)(=O)c1ccc(F)cc1`
97 to 98 °C

----------
compounds and their reported melting point

Answer with the recorded melting point for the compound listed here: Cn1nc(C(F)(F)F)c(CS(=O)(=O)C2=NOC(C)(CCl)C2)c1Cl (configuration not stated)
114 to 116 °C

Answer with the recorded melting point for the compound listed here: `NS(=O)(=O)c1nc2ccc(O)cc2s1`
209 °C

Answer with the recorded melting point for the compound listed here: COc1ccc(S(=O)(=O)N2C(=O)C(c3ccccc3OC)(N3Cc4cc(OC)c(OC)cc4C[C@H]3C(=O)N(C)C)c3cc(Cl)ccc32)c(OC)c1 (some centres not stated)
157 °C

----------
molecules and their reported melting point

COc1ccc(C2=NN(CCCO)C(=O)[C@H]3CCCC[C@@H]23)cc1OC (relative stereo)    94 to 97 °C

// next entry
Answer with the recorded melting point for the molecule listed here: O=C(NC1CN2CCC1CC2)c1cccc2oc(-c3ccc(F)cc3)nc12 (stereo unspecified)
208 to 209 °C

----------
compounds and their reported melting point

Field: example entries. Status: answers known.
Oc1ccc(C(O)CN2CCC(O)(c3cccc(F)c3)CC2)cc1 (configuration not stated)    154 °C
COc1ccc2cc([C@H](C)C(=O)OCC(=O)N(C)CC(=O)OCCCO)ccc2c1    41 to 43 °C
CC1(C)COP(=O)(OC(C#N)c2cccc(Oc3ccccc3)c2)OC1 (configuration not stated)    140 °C
OCc1cn(-c2cccc(SC(F)(F)F)c2)cn1    73 to 75 °C
CCOC(=O)c1[nH]c(C)c(C)c1O    111 to 113 °C
CCN(CC)CCCN1C(=O)NC(Cc2c[nH]c3ccccc23)C1=O (configuration not stated)    90 °C

// next entry
Answer with the recorded melting point for the compound listed here: `CC(C)CN1N=Cc2cc(S(N)(=O)=O)sc2S1(=O)=O`
130 to 132 °C

----------
Readout type: melting point

Answer with the recorded melting point for the compound listed here: CN(Cc1cccc2c1CN(C1CCC(=O)NC1=O)C2=O)C(=O)NC1CCCCC1 (stereo not given)
219 to 221 °C
